Data provenance is ChEMBL document CHEMBL5143558.

System: RAW264.7
PROTOCOL NOTES: Anti-inflammatory activity in mouse RAW264.7 cells assessed as inhibition of LPS-induced p-NFkappaB protein expression at 10 uM incubated for 24 hrs by Western blot analysis
Assay type: functional, cell-based
The source made the active and inactive calls. The rule behind the calls is not given here.
RECORDED METRIC: inhibition

> print(dat)
                  compound.structure.string  recorded.metric  assay.value
1      Cc1cc(C(=O)/C=C/c2ccccc2)c(O)c(C)c1O       inhibition       Active
2         C/C=C/C=C/C(=O)c1cc(C)c(O)c(C)c1O       inhibition       Active
3  CC(C)=CC(=O)Oc1ccc(C)c(OC(=O)C=C(C)C)c1C       inhibition       Active
4         Cc1cc(C(=O)CCc2ccccc2)c(O)c(C)c1O       inhibition       Active
